target: Beta-3 adrenergic receptor (Homo sapiens, UniProt P13945); experiment: Displacement of [125I]iodocyanopindolol from human adrenergic beta-3 receptor at 10 uM
Sequence (P13945 whole entry, looked up): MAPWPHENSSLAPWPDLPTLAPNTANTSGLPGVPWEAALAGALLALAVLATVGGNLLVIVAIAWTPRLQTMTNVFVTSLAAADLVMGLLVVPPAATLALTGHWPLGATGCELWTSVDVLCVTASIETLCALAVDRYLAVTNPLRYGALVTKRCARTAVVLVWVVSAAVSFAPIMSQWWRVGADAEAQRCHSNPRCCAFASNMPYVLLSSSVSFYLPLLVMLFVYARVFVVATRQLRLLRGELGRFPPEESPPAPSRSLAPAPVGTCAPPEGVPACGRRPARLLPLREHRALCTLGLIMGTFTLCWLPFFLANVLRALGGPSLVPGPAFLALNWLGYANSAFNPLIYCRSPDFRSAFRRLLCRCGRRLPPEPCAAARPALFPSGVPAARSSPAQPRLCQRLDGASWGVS
# inhibition >= 30% gives true, anything below gives false

stdin: Does `CCCNCCCOc1ccc2c(c1)CCCN2Cc1ccccc1` have a reported inhibition of at least 30%?
stdout: false

stdin: Does OC(COc1ccc2c(c1)CCCN2Cc1ccccc1)CN1CCN(c2cccc(Cl)c2)CC1 (configuration not stated) have a reported inhibition of at least 30%?
stdout: false

stdin: Does OC(CNCc1ccccc1)COc1ccc2c(c1)CCCN2Cc1ccccc1 (configuration not stated) have a reported inhibition of at least 30%?
stdout: false

stdin: Does CN1CCN(CC(O)COc2ccc3c(c2)CCCN3Cc2ccccc2)CC1 (configuration not stated) have a reported inhibition of at least 30%?
stdout: false

stdin: Does OC(COc1ccc2c(c1)CCCN2Cc1ccccc1)CN1CCCCC1 (configuration not stated) have a reported inhibition of at least 30%?
stdout: true

stdin: Does OC(COc1ccc2c(c1)CCCN2Cc1ccccc1)CN1CCN(Cc2ccccc2)CC1 (configuration not stated) have a reported inhibition of at least 30%?
stdout: false

stdin: Does OC(CNCCc1ccc(Cl)cc1)COc1ccc2c(c1)CCCN2Cc1ccccc1 (configuration not stated) have a reported inhibition of at least 30%?
stdout: true

stdin: Does COc1ccc(CCNCC(O)COc2ccc3c(c2)CCCN3Cc2ccccc2)cc1OC (configuration not stated) have a reported inhibition of at least 30%?
stdout: true

stdin: Does COc1ccc(CCNCC(O)COc2ccc3c(c2)CCCN3Cc2ccccc2)cc1 (configuration not stated) have a reported inhibition of at least 30%?
stdout: true

stdin: Does CC(Cc1ccc(O)cc1)N1CCOC(c2ccccc2)C1 (configuration not stated) have a reported inhibition of at least 30%?
stdout: false

stdin: Does Cc1ccc(CCNCC(O)COc2ccc3c(c2)CCCN3Cc2ccccc2)cc1 (configuration not stated) have a reported inhibition of at least 30%?
stdout: false

stdin: Does OC(COc1ccc2c(c1)CCCN2Cc1ccccc1)CN1CCN(Cc2ccc3c(c2)OCO3)CC1 (configuration not stated) have a reported inhibition of at least 30%?
stdout: false

stdin: Does OC(COc1ccc2c(c1)CCCN2Cc1ccccc1)CN1CCN(c2ccc(F)cc2)CC1 (configuration not stated) have a reported inhibition of at least 30%?
stdout: true

stdin: Does CCCNCC(O)COc1ccc2c(c1)CCCN2Cc1ccccc1 (configuration not stated) have a reported inhibition of at least 30%?
stdout: true

stdin: Does OC(COc1ccc2c(c1)CCCN2Cc1ccccc1)CN1CCN(c2ccccc2F)CC1 (configuration not stated) have a reported inhibition of at least 30%?
stdout: false

stdin: Does CC1CCN(CC(O)COc2ccc3c(c2)CCCN3Cc2ccccc2)CC1 (configuration not stated) have a reported inhibition of at least 30%?
stdout: false

stdin: Does CC(Cc1ccc(OCC(=O)O)cc1)N1CCOC(c2ccccc2)C1 (configuration not stated) have a reported inhibition of at least 30%?
stdout: false

stdin: Does CC(C)NCC(O)COc1ccc2c(c1)CCCN2Cc1ccccc1 (configuration not stated) have a reported inhibition of at least 30%?
stdout: true

stdin: Does CCN(CC)CC(O)COc1ccc2c(c1)CCCN2Cc1ccccc1 (configuration not stated) have a reported inhibition of at least 30%?
stdout: false

stdin: Does OC(COc1ccc2c(c1)CCCN2Cc1ccccc1)CN1CCC(O)(c2ccccc2)CC1 (configuration not stated) have a reported inhibition of at least 30%?
stdout: true

stdin: Does CCCCN(CCCC)CC(O)COc1ccc2c(c1)CCCN2Cc1ccccc1 (configuration not stated) have a reported inhibition of at least 30%?
stdout: false

stdin: Does CCOC(=O)COc1ccc(CC(C)N2CCOC(c3ccccc3)C2)cc1 (configuration not stated) have a reported inhibition of at least 30%?
stdout: false
